Tgt: T1, mouse DLL4 extracellular domain (mouse, UniProt Q9JI71 27-532)
T1 construct: extracellular domain; also called muDLL4 ECD; murine DLL4
Measurement notes: SPR (Biacore)
Parameter: koff (s⁻¹)
One number for each entry, in s⁻¹.

Please review the entries below; each comes with its answer.
>>> measured_value("h1A11.G3 (antibody, V domains shown, also called h1A11.G3 VH / h1A11.E12 VL) VH: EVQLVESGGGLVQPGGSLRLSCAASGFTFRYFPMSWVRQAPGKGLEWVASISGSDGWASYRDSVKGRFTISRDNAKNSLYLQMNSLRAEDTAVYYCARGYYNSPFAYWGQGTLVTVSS VL: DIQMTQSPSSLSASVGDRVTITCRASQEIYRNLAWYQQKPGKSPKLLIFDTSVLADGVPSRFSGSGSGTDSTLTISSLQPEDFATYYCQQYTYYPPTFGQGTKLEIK")
"4.04e-05"
>>> measured_value("h1A11.A8 (antibody, V domains shown, also called h1A11.A8 VH / h1A11VL.1) VH: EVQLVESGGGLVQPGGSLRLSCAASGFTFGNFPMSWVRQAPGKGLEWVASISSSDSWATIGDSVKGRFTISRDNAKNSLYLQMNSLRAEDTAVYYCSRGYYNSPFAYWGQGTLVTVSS VL: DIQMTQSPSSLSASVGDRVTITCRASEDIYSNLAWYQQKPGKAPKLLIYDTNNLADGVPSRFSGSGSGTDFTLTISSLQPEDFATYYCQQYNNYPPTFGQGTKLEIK")
"3.27e-05"

Now let's try a different one.
input: GET /values?readout=koff&item= h1A11.1 (antibody, V domains shown, humanized IgG; also called hu1A11.1; VH.1/VL.1 1A11) VH: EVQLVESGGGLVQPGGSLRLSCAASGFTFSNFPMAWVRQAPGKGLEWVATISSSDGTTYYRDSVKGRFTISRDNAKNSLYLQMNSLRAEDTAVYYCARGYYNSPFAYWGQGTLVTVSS VL: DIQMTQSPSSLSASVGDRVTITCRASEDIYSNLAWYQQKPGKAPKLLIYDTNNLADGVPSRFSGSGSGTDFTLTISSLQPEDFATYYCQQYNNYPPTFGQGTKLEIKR
output: 0.00498
